Test system: MS2 coat protein
protocol.details: apparent KD of MS2 coat protein; designed switch direction (-1 OFF switch, 1 ON switch): 1; higher = weaker reporter binding
condition.summary: input ligand: microRNA oligo, concentration not stated
attribute.measured: apparent KD of MS2 coat protein (µM)
Response body: numeric value in µM, unit text excluded.

>>> reported_value("UCGAGCGUACUUGCAGACAUGAGGAUCACCCAUGUAAAUGGGAAGGAUAUGGUACCGUUUCGGUACCAGAAGGUCCUGGGUGCU [salish99_SSNG3_r04_307] (Eterna round: R96, puzzle: Same State NG 3)")
1.09
>>> reported_value("AGCUAUUAAUCAGGAUAUGGUGACAUGAGGAUCACCCAUGUAUUGAUGAUUAAAUGUGGUCAAUACCAGAAGGGAUUACUAACA [SameState NG2 #51] (Eterna round: R96, puzzle: Same State NG 2)")
0.401
>>> reported_value("UGAAUAUUUACAGGAUAUGAGUUGUAUAGUGGAUCAGAAGGGUGGGUGUUUUGCACGGUGUGUUACAUGAGGAUCACCCAUGUU [SameState NG1 #26] (Eterna round: R96, puzzle: Same State NG 1)")
0.206

Prompt: Dear colleague, I am looking for the recorded apparent KD of MS2 coat protein of the following sequence: AUAAAACAUGAGGAUCACCCAUGUCAACAAAGUCGAGGAUAUGGGCAAAUAAAAUAAGAACCAGAAGGCGAAUAAU [Teenbexe] (Eterna round: R96, puzzle: Same State 1)
Response: 0.207

Prompt: Follow-up entry: CCGGUUUAUGGAGGAUAUGGAGCCUUAUUGGCUCCAGAAGGCUAAUACAUGAGGAUCACCCAUGUUCCGGCGGUCAAUAGACCG [Eli NG1ss - 58] (Eterna round: R96, puzzle: Same State NG 1)
Response: 0.0778
